Task for the reader: assign each of the following molecules its reported inhibition at 25 µM.
# Tested Target: VR1/TRPV1 receptor (Homo sapiens, UniProt Q8NER1)
# Sequence (Q8NER1 whole entry): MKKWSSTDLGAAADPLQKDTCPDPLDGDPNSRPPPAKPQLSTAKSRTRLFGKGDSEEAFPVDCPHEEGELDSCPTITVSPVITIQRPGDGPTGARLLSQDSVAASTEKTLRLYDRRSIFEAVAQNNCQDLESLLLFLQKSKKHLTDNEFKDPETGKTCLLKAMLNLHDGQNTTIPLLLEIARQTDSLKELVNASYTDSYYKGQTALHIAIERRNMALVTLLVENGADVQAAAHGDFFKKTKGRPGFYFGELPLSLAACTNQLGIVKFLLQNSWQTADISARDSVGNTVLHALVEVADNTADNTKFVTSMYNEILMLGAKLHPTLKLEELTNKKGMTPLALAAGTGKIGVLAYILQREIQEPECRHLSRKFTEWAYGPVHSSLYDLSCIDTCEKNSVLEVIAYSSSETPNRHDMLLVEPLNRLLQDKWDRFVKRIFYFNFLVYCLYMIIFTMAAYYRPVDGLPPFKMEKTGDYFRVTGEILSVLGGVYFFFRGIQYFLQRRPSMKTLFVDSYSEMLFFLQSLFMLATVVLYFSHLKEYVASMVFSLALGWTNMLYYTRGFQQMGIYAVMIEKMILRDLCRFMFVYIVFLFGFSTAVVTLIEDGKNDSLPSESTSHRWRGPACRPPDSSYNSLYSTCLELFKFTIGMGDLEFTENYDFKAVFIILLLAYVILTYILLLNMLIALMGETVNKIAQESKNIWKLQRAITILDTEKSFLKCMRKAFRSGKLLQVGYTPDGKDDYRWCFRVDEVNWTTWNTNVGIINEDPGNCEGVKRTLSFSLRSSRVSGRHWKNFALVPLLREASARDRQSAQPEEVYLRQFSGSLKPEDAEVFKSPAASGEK
# Assay: IC50 (human) after pH stimulus
# Assay type: cell-based
# Test Context: @ 25 μM; read-out: inhibition in percent, IC50 (human) after pH stimulus

Challenge: # input molecule: CC(C(=O)NCc1ccc(C(F)(F)F)nc1N1CCN(C)CC1)c1ccc(NS(C)(=O)=O)c(F)c1 (stereo not drawn) ; wanted: its inhibition at 25 µM
Response given: 69%

Challenge: # input molecule: CC(C(=O)NCc1ccc(C(F)(F)F)nc1N1CCC(N2CCCC2)CC1)c1ccc(NS(C)(=O)=O)c(F)c1 (stereo not drawn) ; wanted: its inhibition at 25 µM
Response given: 40%

Challenge: # input molecule: CC(C(=O)NCc1ccc(C(F)(F)F)nc1)c1ccc(NS(C)(=O)=O)c(F)c1 (stereo not drawn) ; wanted: its inhibition at 25 µM
Response given: 15%

Challenge: # input molecule: CC(C(=O)NCc1ccc(C(F)(F)F)cc1N1CCN(c2ccc(C(F)(F)F)cc2)CC1)c1ccc(NS(C)(=O)=O)c(F)c1 (stereo not drawn) ; wanted: its inhibition at 25 µM
Response given: 74%

Challenge: # input molecule: CC(C(=O)NCc1ccc(C(F)(F)F)nc1N1CCC(N2CCCCC2)CC1)c1ccc(NS(C)(=O)=O)c(F)c1 (stereo not drawn) ; wanted: its inhibition at 25 µM
Response given: 28%

Challenge: # input molecule: CC(C(=O)NCc1ccc(C(F)(F)F)nc1Nc1ccc(F)cc1)c1ccc(NS(C)(=O)=O)c(F)c1 (stereo not drawn) ; wanted: its inhibition at 25 µM
Response given: 67%
